# Test system: S. cohnii c.i.
# Procedure details: MIC/MBC broth microdilution, S. cohnii
# Format: cell-based, Staphylococcus cohnii
# Run conditions: water additive EtOH
Residues, ends and D or L forms follow the SMILES beside them.
Measurement label: MIC

Solved cases (2 shown):
[
  {
    "Compound": "Cc1ccccc1COC(=O)N[C@@H](CCCNC(=N)N)C(=O)N[C@@H](CC(C)C)C(=O)N[C@H](CNC(=O)/C=C/c1ccccc1)C(C)C",
    "Experimental value": "32 µg/mL"
  },
  {
    "Compound": "CC(C)C[C@H](NC(=O)[C@H](CCCNC(=N)N)NC(=O)OCc1ccccc1)C(=O)N[C@H](CN)C(C)C",
    "Experimental value": "> 512 µg/mL"
  }
]

Note: attention shifts to another entry.
Looking up CC(C)[C@H](NC(=O)[C@H](Cc1c[nH]cn1)NC(=O)[C@H](CCCNC(=N)N)NC(=O)OCc1ccccc1)C(=O)NCCc1ccccc1 [Compound A-219] (HELM PEPTIDE1{[O=C(OCc1ccccc1)[*:2]].R.H.V.[c1ccc(CCN[*:1])cc1]}$$$$V2.0) , I found its MIC recorded as > 512 µg/mL

----------
Record form. Attribute: MIC. Fill in for each entry.
# Tested on: P. aeruginosa ATCC 10145
# Procedure details: MIC/MBC broth microdilution, P. aeruginosa
# Type: cell-based
# Run conditions: water additive DMSO
Residues, ends and D or L forms follow the SMILES beside them.

Below, 3 compounds whose answers are already recorded.
[
  {
    "Compound": "CC(C)[C@H](NC(=O)[C@H](Cc1c[nH]cn1)NC(=O)[C@H](CCCNC(=N)N)NC(=O)OCc1ccccc1)C(=O)NCCc1ccccc1 [Compound A-219] (HELM PEPTIDE1{[O=C(OCc1ccccc1)[*:2]].R.H.V.[c1ccc(CCN[*:1])cc1]}$$$$V2.0)",
    "MIC": "256 µg/mL"
  },
  {
    "Compound": "CC(C)[C@H](NC(=O)[C@H](Cc1c[nH]cn1)NC(=O)[C@H](CCCCN)NC(=O)OCc1ccccc1)C(=O)NCCc1ccccc1 [Compound A-220] (HELM PEPTIDE1{[O=C(OCc1ccccc1)[*:2]].K.H.V.[c1ccc(CCN[*:1])cc1]}$$$$V2.0)",
    "MIC": "512 µg/mL"
  },
  {
    "Compound": "CC[C@@H](CNC(=O)/C=C/c1ccccc1)NC(=O)[C@H](CC(C)C)NC(=O)[C@H](CCCNC(=N)N)NC(=O)OCc1ccccc1",
    "MIC": "256 µg/mL"
  }
]

Give MIC for each of the items listed below.
1. CC(C)[C@H](NC(=O)[C@H](CCCNC(=N)N)NC(=O)[C@H](CCCNC(=N)N)NC(=O)OCc1ccccc1)C(=O)NCCc1ccccc1 [Compound A-221] (HELM PEPTIDE1{[O=C(OCc1ccccc1)[*:2]].R.R.V.[c1ccc(CCN[*:1])cc1]}$$$$V2.0)
2. CC(C)[C@@H](CNC(=O)C(=Cc1ccccc1)c1ccccc1)NC(=O)[C@H](Cc1c[nH]cn1)NC(=O)[C@H](CCCCNC(=N)N)NC(=O)OCc1ccccc1
3. CC(C)C[C@H](NC(=O)[C@H](CCCNC(=N)N)NC(=O)OCc1ccccc1)C(=O)N[C@H](C(=O)NCCc1ccccc1)C(C)C [Compound A-196] (HELM PEPTIDE1{[O=C(OCc1ccccc1)[*:2]].R.L.V.[c1ccc(CCN[*:1])cc1]}$$$$V2.0)
4. CC(C)[C@@H](CNC(=O)C(=Cc1ccccc1)c1ccccc1)NC(=O)[C@H](CCCNC(=N)N)NC(=O)[C@H](CCCNC(=N)N)NC(=O)OCc1ccccc1
5. CC(C)C[C@H](NC(=O)[C@H](CCCNC(=N)N)NC(=O)OCc1ccccc1)C(=O)N[C@H](CNC(=O)C(=Cc1ccccc1)c1ccccc1)C(C)C
6. CC(C)[C@@H](CNC(=O)/C=C/c1ccccc1)NC(=O)[C@H](Cc1c[nH]cn1)NC(=O)[C@H](CCCCN)NC(=O)OCc1ccccc1
7. CC(C)C[C@H](NC(=O)[C@H](CCCNC(=N)N)NC(=O)OCc1ccccc1)C(=O)N[C@H](CN)C(C)C

**A:**
32 µg/mL
512 µg/mL
> 512 µg/mL
> 512 µg/mL
> 512 µg/mL
> 512 µg/mL
> 512 µg/mL

----------
Would you mind telling me the reported MBC of each entry?
# Tested on: E. faecalis c.i.
# Procedure details: MIC/MBC broth microdilution, E. faecalis
# Assay type: cell-based, Enterococcus faecalis
# Run conditions: water additive EtOH
Non-standard residues stand in square brackets, D forms with d. Residues, ends and D or L forms follow the SMILES beside them. *: point of attachment. NHPhenethyl = c1ccc(CCN*)cc1; β3hV = CC(C)[C@H](N)CC(=O)O; Cbz = O=C(OCc1ccccc1)*
One number for each entry, in µg/mL.

[
  {
    "Molecule": "CC(C)[C@@H](CNC(=O)C(=Cc1ccccc1)c1ccccc1)NC(=O)[C@H](CCCNC(=N)N)NC(=O)[C@H](CCCCNC(=N)N)NC(=O)OCc1ccccc1",
    "MBC, µg/mL": 512
  }
]

Look at each molecule and report its MBC.
1. CC(C)C[C@H](NC(=O)[C@H](CCCNC(=N)N)NC(=O)OCc1ccccc1)C(=O)N[C@H](CC(=O)NCCc1ccccc1)C(C)C [Compound A-152] (Cbz-Arg-Leu-[β3hV]-NHPhenethyl)
2. Cc1ccccc1COC(=O)N[C@@H](CCCNC(=N)N)C(=O)N[C@@H](CC(C)C)C(=O)N[C@H](CNC(=O)/C=C/c1ccccc1)C(C)C
3. CC(C)C[C@H](NC(=O)[C@H](CCCNC(=N)N)NC(=O)OCc1ccccc1)C(=O)N[C@H](CNC(=O)/C=C/c1ccccc1)C(C)C
4. CC[C@@H](CNC(=O)/C=C/c1ccccc1)NC(=O)[C@H](CC(C)C)NC(=O)[C@H](CCCNC(=N)N)NC(=O)OCc1ccccc1

**A:**
512
256
256
256

----------
# System: P. aeruginosa ATCC 10145
# Procedure details: MIC/MBC broth microdilution, P. aeruginosa
# Assay type: cell-based
# Run conditions: water additive DMSO
Residues, ends and D or L forms follow the SMILES beside them.
Measurement label: MBC (µg/mL)
Answers are plain numbers, in µg/mL.

[
  {
    "Molecule": "CC(C)[C@@H](CNC(=O)C(=Cc1ccccc1)c1ccccc1)NC(=O)[C@H](Cc1c[nH]cn1)NC(=O)[C@H](CCCNC(=N)N)NC(=O)OCc1ccccc1",
    "Unit abbreviation": "µg/mL",
    "MBC": 256
  },
  {
    "Molecule": "CC[C@@H](CNC(=O)/C=C/c1ccccc1)NC(=O)[C@H](CC(C)C)NC(=O)[C@H](CCCNC(=N)N)NC(=O)OCc1ccccc1",
    "Unit abbreviation": "µg/mL",
    "MBC": 512
  },
  {
    "Molecule": "CC(C)[C@H](NC(=O)[C@H](Cc1c[nH]cn1)NC(=O)[C@H](CCCNC(=N)N)NC(=O)OCc1ccccc1)C(=O)NCCc1ccccc1 [Compound A-219] (HELM PEPTIDE1{[O=C(OCc1ccccc1)[*:2]].R.H.V.[c1ccc(CCN[*:1])cc1]}$$$$V2.0)",
    "Unit abbreviation": "µg/mL",
    "MBC": 512
  }
]

# input for lookup
The molecule identified as `CC(C)[C@@H](CNC(=O)C(=Cc1ccccc1)c1ccccc1)NC(=O)[C@H](CCCNC(=N)N)NC(=O)[C@H](CCCCN)NC(=O)OCc1ccccc1` registered its MBC at 256

----------
Exercise: for every item that follows, state its recorded MBC.
# System: E. faecalis c.i.
# Procedure details: MIC/MBC broth microdilution, E. faecalis
# Assay type: cell-based, Enterococcus faecalis
# Run conditions: water additive DMSO
One number for each entry, in µg/mL.

Quick batch: MBC for everything below.
1. CC(C)[C@@H](CNC(=O)C(=Cc1ccccc1)c1ccccc1)NC(=O)[C@H](CCCNC(=N)N)NC(=O)[C@H](CCCNC(=N)N)NC(=O)OCc1ccccc1 [Compound A-179]
2. Cc1ccccc1COC(=O)N[C@@H](CCCNC(=N)N)C(=O)N[C@@H](CC(C)C)C(=O)N[C@H](CNC(=O)/C=C/c1ccccc1)C(C)C [Compound A-210]

**A:**
1: 256; 2: 256

MBC in this record for CC[C@@H](CNC(=O)/C=C/c1ccccc1)NC(=O)[C@H](CC(C)C)NC(=O)[C@H](CCCNC(=N)N)NC(=O)OCc1ccccc1 [Compound A-213] : 256

----------
Record form. Attribute: MBC. Fill in for each entry.
# Tested on: S. schleiferi c.i.
# Procedure details: MIC/MBC broth microdilution, S. schleiferi
# Assay type: cell-based, Staphylococcus schleiferi
# Run conditions: H2O
# Description: S. aureus (ATCC 29213),S. pyogenes (ATCC 19615),Streptococcus agalactiae (ATCC 27956),Escherichia coli (ATCC 25922),Proteus vulgaris (ATCC 6896),K. pneumoniae (ATCC 700603) andP. aeruginosa (ATCC 10145) reference strains, as well asStaphylococcus cohnii, Enterococcus faecalis, Staphylococcus schleiferi, Staphylococcus intermedius and Streptococcus mutans clinical isolates, were used to test the antibacterial activity of the peptidomimetics. […]
Residues, ends and D or L forms follow the SMILES beside them.
Answers are plain numbers, in µg/mL.

Use these answered entries as a reference point.
[
  {
    "Compound": "C=CCC(=O)NC[C@@H](NC(=O)[C@H](CC(C)C)NC(=O)[C@H](CCCNC(=N)N)NC(=O)OCc1ccccc1)C(C)C",
    "MBC (µg/mL)": 512
  },
  {
    "Compound": "CC(C)C[C@H](NC(=O)[C@H](CCCNC(=N)N)NC(=O)OCc1ccccc1)C(=O)N[C@H](CNC(=O)C(=Cc1ccccc1)c1ccccc1)C(C)C",
    "MBC (µg/mL)": 16
  },
  {
    "Compound": "CC(C)[C@@H](CNC(=O)C(=Cc1ccccc1)c1ccccc1)NC(=O)[C@H](Cc1c[nH]cn1)NC(=O)[C@H](CCCCNC(=N)N)NC(=O)OCc1ccccc1",
    "MBC (µg/mL)": 32
  },
  {
    "Compound": "CC(C)C[C@H](NC(=O)[C@H](CCCNC(=N)N)NC(=O)OCc1ccccc1)C(=O)N[C@H](C(=O)NCCc1ccccc1)C(C)C [Compound A-196] (HELM PEPTIDE1{[O=C(OCc1ccccc1)[*:2]].R.L.V.[c1ccc(CCN[*:1])cc1]}$$$$V2.0)",
    "MBC (µg/mL)": 16
  }
]

Pending compound:
# lookup: `CC(C)[C@@H](CNC(=O)C(=Cc1ccccc1)c1ccccc1)NC(=O)[C@H](CCCNC(=N)N)NC(=O)[C@H](CCCCN)NC(=O)OCc1ccccc1` on S. schleiferi c.i., MBC = 32
